Just for reference, patent US20250041279A1 is where these values come from.

target: recombinant human ACC1 (Homo sapiens (Human), UniProt Q13085); test: Measurement of inhibitory activity of human ACC1 (MALDI-TOF MS); settings: read-out: IC50 hACC1
pIC50: −log10 of the molar value.
quantity.measured: pIC50

- molecule: "C[C@@H](CCC1OCC(Oc2nc3c(F)cc(OCC(F)F)c(F)c3n2C)CO1)NC(N)=O (some centres unmarked) [Compound I-11]"
  tested.system: "recombinant human ACC1 (Homo sapiens (Human), UniProt Q13085)"
  reading: 5.15
- molecule: "C[C@@H](COC1CCC(Oc2nc3c(F)cc(OC4CC4)cc3n2C)CC1)NC(N)=O (some centres unmarked) [Compound I-12]"
  tested.system: "recombinant human ACC1 (Homo sapiens (Human), UniProt Q13085)"
  reading: 5.16
- molecule: "Cn1c(OC2CCC(OC[C@H](CF)NC(N)=O)CC2)nc2c(F)cc(OC3CC3)cc21 (some centres unmarked) [Compound I-5]"
  tested.system: "recombinant human ACC1 (Homo sapiens (Human), UniProt Q13085)"
  reading: 5.16
- molecule: "CC(=O)N[C@@H](C)CCC1OCC(Oc2nc3c(F)c(OC4CC4)ccc3n2C)CO1 (some centres unmarked) [Compound I-13]"
  tested.system: "recombinant human ACC1 (Homo sapiens (Human), UniProt Q13085)"
  reading: 6.04
- molecule: "CC(=O)N[C@@H](C)CCC1CCC(Oc2nc3c(F)cc(OC4CC4)cc3n2C)CC1 (some centres unmarked) [Compound I-15]"
  tested.system: "recombinant human ACC1 (Homo sapiens (Human), UniProt Q13085)"
  reading: 5.77
- molecule: "C[C@@H](COC1CCC(Oc2nc3c(Cl)cc(OC4CC4)cc3n2C)CC1)NC(N)=O (some centres unmarked) [Compound I-8]"
  tested.system: "recombinant human ACC1 (Homo sapiens (Human), UniProt Q13085)"
  reading: 5.21
- molecule: "CC(=O)N[C@@H](CF)COC1CCC(Oc2nc3c(F)cc(OC4CC4)cc3n2C)CC1 (some centres unmarked) [Compound I-4]"
  tested.system: "recombinant human ACC1 (Homo sapiens (Human), UniProt Q13085)"
  reading: 5.57
- molecule: "CC(=O)N[C@@H](C)COC1CCC(Oc2nc3c(F)cc(OC4CCC4)cc3n2C)CC1 (some centres unmarked) [Compound I-1]"
  tested.system: "recombinant human ACC1 (Homo sapiens (Human), UniProt Q13085)"
  reading: 6.49

A. CC(=O)N[C@@H](C)COC1CCC(Oc2nc3c(Cl)cc(OC4CC4)cc3n2C)CC1 (some centres unmarked) [Compound I-3]
B. CC(=O)N[C@@H](C)C(F)(F)C[C@H]1CCC(Oc2nc3c(F)cc(OCC(F)F)c(F)c3n2C)CO1 (some centres unmarked) [Compound I-7]
Challenge: I would appreciate it if you could say which entry, A or B , has the lower pIC50 value. Indicate your choice by writing its label.
Response given: B
